The following are reported log10 Ki results, target or system UniProt Q72874.
Hey, these are logged values: log10 of Ki, nM being the unit before logging.

Endpoint output: log10 Ki of `O=C1N(Cc2ccccc2)[C@H](Cc2ccccc2)[C@@H](O)[C@H](O)[C@]23CC[C@H](CC2)N13` . Value?
3.80

Request the reported log10 Ki associated with `O=C1N(Cc2ccc3[nH]ncc3c2)[C@H](Cc2ccccc2)[C@H](O)[C@H](O)[C@]23CC[C@H](CC2)N13`
3.36

Name the reported log10 Ki value associated with the compound `O=C1N(Cc2ccc3[nH]ncc3c2)[C@H](Cc2ccccc2)[C@H](O)[C@H](O)[C@]23CC[C@H]([C@H](OCc4ccccc4)C2)N13`
0.95

Which measured log10 Ki value corresponds to `O=C1N(Cc2ccccc2)[C@H](Cc2ccccc2)[C@H](O)[C@H](O)[C@]23CC[C@H](CC2)N13` ?
3.38

log10 Ki for `O=C1N(Cc2ccccc2)[C@H](Cc2ccccc2)[C@H](O)[C@H](O)[C@]23CC[C@H]([C@H](OCc4ccccc4)C2)N13` ?
2.88

Reported log10 Ki for `O=C1N[C@H](Cc2ccccc2)[C@@H](O)[C@H](O)[C@]23CC[C@H](CC2)N13` : what is it?
4.32
